# study.target: DNA topoisomerase 2-alpha (Homo sapiens)
# experiment.summary: Inhibition of human DNA topoisomerase-2a-mediated relaxation of supercoiled DNA pBR322 at 20 uM after 4 hrs using ethidium bromide staining by agarose gel electrophoresis analysis
parameter: inhibition

smiles.notation	study.target	inhibition
Cc1ccc2c(N3CCNCC3)nc(-c3cccs3)cc2c1	DNA topoisomerase 2-alpha (Homo sapiens)	0%

Any idea what its inhibition is? The compound is c1csc(-c2cc3ccccc3c(N3CCOCC3)n2)c1
0%

Here is the next compound: Cc1ccc2c(N3CCCCC3)nc(-c3cccs3)cc2c1
1.1%

Here is the next compound: c1csc(-c2cc3ccccc3c(N3CCNCC3)n2)c1
0%

Here is the next compound: Cc1ccc2c(NCc3ccccc3)nc(-c3cccs3)cc2c1
1.1%

Here is the next compound: Cc1ccc2c(N3CCOCC3)nc(-c3cccs3)cc2c1
1.7%

Here is the next compound: Nc1nc(-c2cccs2)cc2ccccc12
0%

* * *

Below, each entry is listed with its recorded Activity.
# Tested on: HeLa
# experiment.summary: Cell cycle arrest in human HeLa cells assessed as accumulation at S phase phase at 5 uM after 24 hrs using ethidium bromide staining by flow cytometry analysis relative to control
# Assay type: functional
# setup.conditions: in the assay text read “propidium iodide staining” for “ethidium bromide staining”
State just the number; it will be interpreted in %.

Look over these answered cases.
smiles.notation	endpoint.value
CCN1CCN(c2nc(-c3cccs3)cc3ccccc23)CC1.Cl	9.99
CCN1CCN(c2nc(-c3cccs3)cc3ccccc23)CC1	10.47
Nc1nc(-c2cccs2)cc2ccccc12	9.04
Cc1ccc2c(N3CCNCC3)nc(-c3cccs3)cc2c1	11.25
CCN1CCN(c2nc(-c3cccs3)cc3cc(C)ccc23)CC1	9.77
Cl.c1csc(-c2cc3ccccc3c(N3CCNCC3)n2)c1	12.7

Any idea what its Activity is? The molecule is Cl.Nc1nc(-c2cccs2)cc2ccccc12
7.76

Here is the next molecule: c1csc(-c2cc3ccccc3c(N3CCNCC3)n2)c1
13.11

Here is the next molecule: Cc1ccc2cc(-c3cccs3)nc(N3CCNCC3)c2c1
11.32

Here is the next molecule: Cc1ccc2c(N3CCNCC3)nc(-c3cccs3)cc2c1.Cl
13.49

* * *

# Test system: HeLa
# experiment.summary: Cell cycle arrest in human HeLa cells assessed as accumulation at S phase phase at 25 uM after 24 hrs using […] by flow cytometry analysis relative to control
# Format: functional
Below, each entry is listed with its recorded Activity.
State just the number; it will be interpreted in %.

smiles.notation	endpoint.value
Cc1ccc2cc(-c3cccs3)nc(N3CCNCC3)c2c1	4.72
CCN1CCN(c2nc(-c3cccs3)cc3cc(C)ccc23)CC1	13.57
c1csc(-c2cc3ccccc3c(N3CCNCC3)n2)c1	8.71
Cc1ccc2c(N3CCNCC3)nc(-c3cccs3)cc2c1	0.5
Cc1ccc2c(N3CCNCC3)nc(-c3cccs3)cc2c1.Cl	0.67

Any idea what its Activity is? The compound is Cl.Nc1nc(-c2cccs2)cc2ccccc12
13.82

Here is the next compound: Nc1nc(-c2cccs2)cc2ccccc12
11.29

Here is the next compound: CCN1CCN(c2nc(-c3cccs3)cc3ccccc23)CC1.Cl
18.42

Here is the next compound: Cl.c1csc(-c2cc3ccccc3c(N3CCNCC3)n2)c1
1.85

Here is the next compound: CCN1CCN(c2nc(-c3cccs3)cc3ccccc23)CC1
13.4

* * *

# Test system: HeLa
# experiment.summary: Cell cycle arrest in human HeLa cells assessed as accumulation at G2/M phase phase at 10 uM after 24 hrs using ethidium bromide staining by flow cytometry analysis relative to control
# Format: functional
# setup.conditions: in the assay text read “propidium iodide staining” for “ethidium bromide staining”
parameter: Activity (%)
State just the number; it will be interpreted in %.

smiles.notation	endpoint.value
CCN1CCN(c2nc(-c3cccs3)cc3ccccc23)CC1	17.28
c1csc(-c2cc3ccccc3c(N3CCNCC3)n2)c1	16.57
Cc1ccc2c(N3CCNCC3)nc(-c3cccs3)cc2c1	0.23
Cc1ccc2cc(-c3cccs3)nc(N3CCNCC3)c2c1	14.5
CCN1CCN(c2nc(-c3cccs3)cc3ccccc23)CC1.Cl	20

Any idea what its Activity is? The molecule is Cl.c1csc(-c2cc3ccccc3c(N3CCNCC3)n2)c1
15.05

* * *

# Tested on: HeLa
# experiment.summary: Cell cycle arrest in human HeLa cells assessed as accumulation at S phase phase at 10 uM after 24 hrs using ethidium bromide staining by flow cytometry analysis relative to control
# Format: functional
# setup.conditions: in the assay text read “propidium iodide staining” for “ethidium bromide staining”
Criterion: Activity strictly less than 10%. Met: 1. Not met: -1.

smiles.notation	class
Cc1ccc2c(N3CCNCC3)nc(-c3cccs3)cc2c1	1
Cc1ccc2c(N3CCNCC3)nc(-c3cccs3)cc2c1.Cl	1
Nc1nc(-c2cccs2)cc2ccccc12	1
c1csc(-c2cc3ccccc3c(N3CCNCC3)n2)c1	-1
CCN1CCN(c2nc(-c3cccs3)cc3cc(C)ccc23)CC1	-1

Quick check: Activity of Cl.c1csc(-c2cc3ccccc3c(N3CCNCC3)n2)c1 under 10%?
1

Here is the next compound: Cl.Nc1nc(-c2cccs2)cc2ccccc12
1

Here is the next compound: CCN1CCN(c2nc(-c3cccs3)cc3ccccc23)CC1.Cl
-1

Here is the next compound: CCN1CCN(c2nc(-c3cccs3)cc3ccccc23)CC1
1

* * *

# System: HeLa
# experiment.summary: Cell cycle arrest in human HeLa cells assessed as accumulation at S phase phase at 50 uM after 24 hrs using […] by flow cytometry analysis relative to control
# Type: functional
Range-based classes on measured Activity: bucket A (below 0.5%), bucket B (0.5% to below 7%), bucket C (7% or more)

Study these solved cases before continuing.
smiles.notation	class
CCN1CCN(c2nc(-c3cccs3)cc3ccccc23)CC1	bucket C
c1csc(-c2cc3ccccc3c(N3CCNCC3)n2)c1	bucket B
Cc1ccc2c(N3CCNCC3)nc(-c3cccs3)cc2c1	bucket A
Cl.Nc1nc(-c2cccs2)cc2ccccc12	bucket C
Cc1ccc2cc(-c3cccs3)nc(N3CCNCC3)c2c1	bucket B

Please report the category associated with Nc1nc(-c2cccs2)cc2ccccc12 , nothing else.
bucket C

Here is the next compound: Cc1ccc2c(N3CCNCC3)nc(-c3cccs3)cc2c1.Cl
bucket A

Here is the next compound: CCN1CCN(c2nc(-c3cccs3)cc3cc(C)ccc23)CC1
bucket A

Here is the next compound: Cl.c1csc(-c2cc3ccccc3c(N3CCNCC3)n2)c1
bucket A

* * *

# study.target: DNA topoisomerase 2-alpha (Homo sapiens)
# experiment.summary: Inhibition of human DNA topoisomerase-2a-mediated relaxation of supercoiled DNA pBR322 at 100 uM after 4 hrs using ethidium bromide staining by agarose gel electrophoresis analysis
Below, each entry is listed with its recorded inhibition.
State just the number; it will be interpreted in %.

Look over these answered cases.
smiles.notation	value.unit	inhibition
Cc1ccc2c(NCc3ccccc3)nc(-c3cccs3)cc2c1	%	68.9
Cc1cccc2c(N=[N+]=[N-])nc(-c3cccs3)cc12	%	4.8
CCN1CCN(c2nc(-c3cccs3)cc3cc(C)ccc23)CC1	%	0
CN1CCN(c2nc(-c3cccs3)cc3ccccc23)CC1	%	0
Cc1ccc2cc(-c3cccs3)nc(N3CCNCC3)c2c1	%	22.1

Next up:
Any idea what its inhibition is? The compound is Cc1ccc2cc(-c3cccs3)nc(N3CCN(C)CC3)c2c1
0

* * *

# System: HeLa
# experiment.summary: Cell cycle arrest in human HeLa cells assessed as accumulation at G2/M phase phase at 5 uM after 24 hrs using ethidium bromide staining by flow cytometry analysis relative to control
# Format: functional
# setup.conditions: in the assay text read “propidium iodide staining” for “ethidium bromide staining”
parameter: Activity (%)
State just the number; it will be interpreted in %.

smiles.notation	study.target	endpoint.value
Cc1ccc2cc(-c3cccs3)nc(N3CCNCC3)c2c1	HeLa	14.91

Any idea what its Activity is? The molecule is Cl.Nc1nc(-c2cccs2)cc2ccccc12
16.08

Here is the next molecule: c1csc(-c2cc3ccccc3c(N3CCNCC3)n2)c1
16.28

Here is the next molecule: CCN1CCN(c2nc(-c3cccs3)cc3ccccc23)CC1
14.89

Here is the next molecule: Cl.c1csc(-c2cc3ccccc3c(N3CCNCC3)n2)c1
16.24

Here is the next molecule: Nc1nc(-c2cccs2)cc2ccccc12
28.48

* * *

# Test system: HeLa
# experiment.summary: Cell cycle arrest in human HeLa cells assessed as accumulation at G2/M phase phase at 5 uM after 24 hrs using ethidium bromide staining by flow cytometry analysis relative to control
# Format: functional
# setup.conditions: in the assay text read “propidium iodide staining” for “ethidium bromide staining”
Below, each entry is listed with its recorded Activity.
State just the number; it will be interpreted in %.

Look over these answered cases.
smiles.notation	parameter	endpoint.value
CCN1CCN(c2nc(-c3cccs3)cc3ccccc23)CC1.Cl	Activity	15.9
Cc1ccc2c(N3CCNCC3)nc(-c3cccs3)cc2c1	Activity	11.58
Cc1ccc2c(N3CCNCC3)nc(-c3cccs3)cc2c1.Cl	Activity	12.75

Next up:
Any idea what its Activity is? The compound is CCN1CCN(c2nc(-c3cccs3)cc3cc(C)ccc23)CC1
17.4
